system: MS2 coat protein; test: apparent KD of MS2 coat protein; higher = weaker reporter binding; details: Eterna round: R107; input ligand: theophylline 20 uM
Reported metric: apparent KD of MS2 coat protein (µM)
Please reply with the bare figure in µM and do not write the unit itself.

GGCACAUAGUCGGCCGCCACUAGUGGGAAAUGGGAGAACAUGAGGAUCACCCAUGUAUUAUAGCCUAGGACCGGGACUAUGUGCC [Mammoth]    0.196
GCACCAGGUACGGAUACCAGACUCUGCCGAUUGGGUGAACAUGAGGAUCACCCAUGUUAGGUCCCUUGGCAGCCGUACCUGGUGC [#18 Exclusion-TheophyllineB]    0.0735
AAUAAUAAGGCGGCCGCCACUAAACAUGAGGAUCACCCAUGUCUCGAGCGCUUGCGUUUGGGAAGUAGGACCGGGCCAAUAAUAA [Exclusion - Tryptophan B (Freestyle 5)]    0.0164
UGUAUGGACUGAAGGAGCGGGUUGAUAAUCUGAGGAUCACCCAGGUAAAAGGCGAAAGCCACCCAGGUAGGUCGCAGUCCAUACU    0.0389

Exercise: Name the reported apparent KD of MS2 coat protein value associated with the sequence CCAUAGCUAGGAAGGAGCGCAUACUUCACAUGAGGAUCACCCAUGUCGAGACGUGAGUCAGUGCAGGUAGGUCGCCUAGCUAUGG [Same State - Arginine B (Freestyle 29)]
Key: 0.0242

Exercise: Entry UUUUACAUGAGGAUCACCCAUGUACAUGGGCGAGGACCGGUACGGCCGCCACUCGUGGGACCCACGGGCCCGCUUAGUGGGUACA [LarryB_001] has what apparent KD of MS2 coat protein?
Key: 0.168

Exercise: GET /values?readout=apparent KD of MS2 coat protein&item= CCGUUCUCUGCGGCCGCCACUCAAGGAGCUACAUAGCUCCUAGACAUGAGGAUCACCCAUGUCGCGAGGACCGGGUAGAUUCUCC [Same State Typptophan B GF9]
Key: 0.0636

Exercise: Request the reported apparent KD of MS2 coat protein associated with UCGCCCGGGUCGGCCGCCACUGCGGUGAUGUGACAUGAGGAUCACCCAUGUUGUCAUGUGGCACAUAGGACCGGGACCCGGGCGA [Exclusion - Tryptophan B Attempt #4 (HarryS)]
Key: 0.0453

Exercise: Quick one: apparent KD of MS2 coat protein of GCGUGUUAUAGUCAUCGUGAGCGUCCAUCCCGAGGACCGGUACGGCCGCCACUCGCCACAGGACAUGAGGAUCACCCAUGUUAUG [theeternabot_exclusion_MS2_Trp_A_3] ?
Key: 0.0168

----------
tested on: MS2 coat protein; assay: apparent KD of MS2 coat protein; designed switch direction (-1 OFF switch, 1 ON switch): 1; higher = weaker reporter binding; conditions: input ligand: none
Reported metric: apparent KD of MS2 coat protein (nM)
The reply should be a number in nM, with the unit left off.

Examples with answers:
UUAAUUAAUUAAUUAUACAUGAGGAUCACCCAUGUAAGUGAUCAGGAUAUCAGCUCGAUUAGAGCUGAGAAGGGAUACAUGAAU [SSNG3/12-A2] (Eterna round: R96, puzzle: Same State NG 3)    139
CCGAAAUAUGGAGGAUAUGGAGCCUUAUUGGCUCCAGAAGGUCAAAACAUGAGGAUCACCCAUGUAUCGGCGGUCAAUAGACCG [Eli NG1ss - 73] (Eterna round: R96, puzzle: Same State NG 1)    171
UUGCGGGAUUAAGGAUAUUGAGUACAUAUGUUUAACAUGAGGAUCACCCAUGUGGGUUGCGGUAUCGAGAAGGUAACUUACUAC [salish99_SSNG2_r04_804] (Eterna round: R96, puzzle: Same State NG 2)    96.3

Next sequence, please.
Exercise: Give the measured apparent KD of MS2 coat protein of GCUAGUAAAAUUGCUAACAUGAGGAUCACCCAUGUAUGUUGGCAGGAUAUCGUUUGCAAAGCAAACGAGAAGGGCUAAACUAGC [Mat - Same State NG 3 - JL Mod - D15] (Eterna round: R96, puzzle: Same State NG 3) .
Key: 86.8
